Target: CDK9/cyclin K (Homo sapiens, UniProt P50750)
Construct: purchased Invitrogen (ThermoFisher) PV4335
Sequence (P50750 whole entry): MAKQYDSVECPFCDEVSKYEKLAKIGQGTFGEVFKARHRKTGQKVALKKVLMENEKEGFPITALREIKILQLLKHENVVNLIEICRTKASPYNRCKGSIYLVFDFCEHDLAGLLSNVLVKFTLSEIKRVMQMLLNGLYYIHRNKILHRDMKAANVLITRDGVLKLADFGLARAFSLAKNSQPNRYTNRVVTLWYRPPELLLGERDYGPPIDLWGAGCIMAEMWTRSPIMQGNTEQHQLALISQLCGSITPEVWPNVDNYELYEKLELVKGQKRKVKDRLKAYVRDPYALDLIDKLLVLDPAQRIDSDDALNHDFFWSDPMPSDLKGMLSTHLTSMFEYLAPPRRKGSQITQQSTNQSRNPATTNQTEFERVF
Sequence (O75909 whole entry partner): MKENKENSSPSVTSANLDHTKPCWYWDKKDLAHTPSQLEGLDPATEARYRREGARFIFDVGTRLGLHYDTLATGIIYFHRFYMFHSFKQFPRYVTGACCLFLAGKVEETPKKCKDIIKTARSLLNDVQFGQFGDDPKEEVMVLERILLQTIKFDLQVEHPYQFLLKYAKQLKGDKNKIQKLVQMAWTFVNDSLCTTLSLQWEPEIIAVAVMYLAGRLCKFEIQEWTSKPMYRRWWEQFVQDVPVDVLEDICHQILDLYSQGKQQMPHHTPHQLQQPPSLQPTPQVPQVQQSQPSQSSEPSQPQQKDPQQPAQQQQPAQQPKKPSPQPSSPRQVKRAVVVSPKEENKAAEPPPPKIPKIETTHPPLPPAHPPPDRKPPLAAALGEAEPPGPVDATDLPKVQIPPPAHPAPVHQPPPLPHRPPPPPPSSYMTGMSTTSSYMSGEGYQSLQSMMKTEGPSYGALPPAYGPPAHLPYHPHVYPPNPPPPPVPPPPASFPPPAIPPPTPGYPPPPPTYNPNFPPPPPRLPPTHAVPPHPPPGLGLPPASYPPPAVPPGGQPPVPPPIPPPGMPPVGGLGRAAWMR
Assay: TR-FRET Lanthascreen Eu Kinase Binding assay
Details: difference between highest and lowest activity across concentration range; in %
ASSAY_METRIC: Efficacy

COMPOUND | TARGET_OR_TEST_SYSTEM | REPORTED_MEASUREMENT
Cc1n[nH]c2ccc(-c3cncc(OC[C@@H](N)Cc4ccccc4)c3)cc12 | CDK9/cyclin K (Homo sapiens, UniProt P50750) | -89.8
Cc1nc(N)sc1-c1ccnc(Nc2ccc(N3CCOCC3)cc2)n1 | CDK9/cyclin K (Homo sapiens, UniProt P50750) | -92.0
CC(C)c1cnn2c(NCc3ccccc3)cc(N[C@@H](CO)[C@H](O)CO)nc12 | CDK9/cyclin K (Homo sapiens, UniProt P50750) | -108.2
COc1ccc(-c2oc3ncnc(N)c3c2-c2ccc(NC(=O)Nc3cc(C(F)(F)F)ccc3F)cc2)cc1 [GW768505A] | CDK9/cyclin K (Homo sapiens, UniProt P50750) | -85.9
CC[C@@](C)(Nc1ccnc(-c2c[nH]c3ncccc23)n1)C(=O)NCC(F)(F)F | CDK9/cyclin K (Homo sapiens, UniProt P50750) | -91.7
O=C1NC(=O)C(c2cnc3ccccn23)=C1c1cn2c3c(cc(F)cc13)CN(C(=O)N1CCCCC1)CC2 | CDK9/cyclin K (Homo sapiens, UniProt P50750) | -79.5
O=C1NC(=O)/C(=C/c2ccc3nccc(-c4ccncc4)c3c2)S1 [GSK1059615] | CDK9/cyclin K (Homo sapiens, UniProt P50750) | -89.8
C1=C/COCc2cc(ccc2OCCN2CCCC2)Nc2nccc(n2)-c2cccc(c2)COC/1 | CDK9/cyclin K (Homo sapiens, UniProt P50750) | -64.6
O=C(NCc1cccc(O)c1)Nc1nc(-c2ccncc2)cs1 | CDK9/cyclin K (Homo sapiens, UniProt P50750) | -64.8
O=C(Nc1ccnc(NC(=O)C2CC2)c1)c1c(Cl)cccc1Cl | CDK9/cyclin K (Homo sapiens, UniProt P50750) | -83.7
CN1CCN(Cc2ccc(Nc3ncc(Cl)c(Nc4ccccc4S(=O)(=O)N(C)C)n3)cc2)CC1 | CDK9/cyclin K (Homo sapiens, UniProt P50750) | -74.0
CC(C)[C@H](CO)Nc1nc(Nc2cccc(Cl)c2)c2ncn(C(C)C)c2n1 | CDK9/cyclin K (Homo sapiens, UniProt P50750) | -79.6
Oc1cc(CNC(=S)/C=C/c2cc(O)c(O)c(Br)c2)cc(O)c1O | CDK9/cyclin K (Homo sapiens, UniProt P50750) | -60.3
O=C(Nc1c[nH]nc1-c1nc2ccc(CN3CCOCC3)cc2[nH]1)NC1CC1 | CDK9/cyclin K (Homo sapiens, UniProt P50750) | -93.9
Oc1ccc(-c2ccc(-c3cc(Nc4cccc(CNC5CC5)c4)[nH]n3)cc2)c(O)c1 | CDK9/cyclin K (Homo sapiens, UniProt P50750) | -85.0
O=C(NC1CCNCC1)c1[nH]ncc1NC(=O)c1c(Cl)cccc1Cl | CDK9/cyclin K (Homo sapiens, UniProt P50750) | -14.9
O=C(O)c1ccc(-c2c[nH]c3ncc(-c4ccccc4)cc23)cc1C1CCCC1 | CDK9/cyclin K (Homo sapiens, UniProt P50750) | -77.0

###

Molecular target: CDK9/cyclin K (Homo sapiens, UniProt P50750)
Construct: purchased Invitrogen (ThermoFisher) PV4335
Assay: TR-FRET Lanthascreen Eu Kinase Binding assay
Conditions: difference between highest and lowest activity across concentration range; in %
Structures can show the parent of a compound that is named as a salt.
Listing of recorded Efficacy by entry.

COMPOUND | Efficacy
CN(c1ncccc1CNc1nc(Nc2ccc3c(c2)CC(=O)N3)ncc1C(F)(F)F)[S+](C)(=O)[O-] | -92.3
Nc1ncnc2c1c(I)cn2[C@@H]1O[C@H](CO)[C@H](O)C1O (some centres unmarked) | -92.5
CN(C)CCCn1cc(C2=C(c3c[nH]c4ccccc34)C(=O)NC2=O)c2ccccc21 [GF109203X] | -69.1
COc1ccc(F)c(F)c1C(=O)c1cnc(NC2CCN([S+](C)(=O)[O-])CC2)nc1N | -13.4
O=[N+]([O-])c1cccc2[nH]c(CNc3nc(N4CCOCC4)nc4c3ncn4-c3ccsc3)nc12 | -69.1
O=C1Nc2ccccc2/C1=C1/Nc2ccccc2/C1=N\OCCC(O)CO (centres unmarked) | -83.1
COc1cc(F)ccc1-c1ncnc(Nc2cccc(C[S+](C)(=N)[O-])c2)n1 (centres unmarked) | -55.3
Cc1ccc(C(N)=O)cc1Nc1nccc(-c2cn(C(C)C)c3cnccc23)n1 | -90.3
COc1ccc(CNc2nc(N(CCO)CCO)nc3c2ncn3C(C)C)cc1 | -101.1
CCS(=O)(=O)c1cccc(-c2cc(C(=O)NC3CCN(C)CC3)c(C)c3[nH]c4ncc(C)cc4c23)c1 | -101.2
OCCCNc1cc(-c2ccnc(Nc3cccc(Cl)c3)n2)ccn1 | -56.9
CC(C)Oc1cc(Nc2nc(N[C@@H](C)c3ccc(F)cn3)ncc2Cl)n[nH]1 | -76.1
Cc1ccc([N+](=O)[O-])cc1[S+](=O)([O-])N(C)/N=C\c1cnc2ccc(Br)cn12 | 0.0
CC1(COc2ccc3c(c2)ncn3-c2ccc3cccc(N4CCC(N)CC4)c3n2)COC1 | -91.6
Cc1cc(Nc2cc(NC(=O)c3c(Cl)cccc3Cl)ccn2)nc(N)n1 | -93.8
COc1ccccc1-c1cc(Nc2cccc(C[S+](N)(=O)[O-])c2)ncn1 | -96.3
COc1ccc(-c2cc3nccn3c(Nc3ncccc3C(N)=O)n2)cc1OC [BAY 61-3606 (dihydrochloride)] | -91.8

###

Listing of recorded Curve Class by entry.
Molecular target: CDK9/cyclin K (Homo sapiens, UniProt P50750)
Construct: purchased Invitrogen (ThermoFisher) PV4335
Assay: TR-FRET Lanthascreen Eu Kinase Binding assay
Details: classifies curves by quality of fit, efficacy and number of asymptotes
ASSAY_METRIC: Curve Class

MOLECULE | REPORTED_MEASUREMENT
COc1ccccc1-c1c[nH]c2ncc(-c3cncc(C(=O)N(C)C)c3)cc12 | -1.1
O=C1NC(=O)/C(=C/c2ccc3nccc(-c4ccncc4)c3c2)S1 [GSK-1059615] | -1.2
Cc1ccc(C(N)=O)cc1Nc1nccc(-c2cn(C(C)C)c3cnccc23)n1 | -1.1
COc1ccc(-c2oc3ncnc(N)c3c2-c2ccc(NC(=O)Nc3cc(C(F)(F)F)ccc3F)cc2)cc1 [GW768505A] | -1.1
COc1ccc2c(c1)/C(=C/c1cnc[nH]1)C(=O)N2 | -1.1
CN1C/C=C/CCOc2cccc(c2)-c2ccnc(n2)Nc2cccc(c2)C1 | 5
O=C1NC(=O)C(c2cnc3ccccn23)=C1c1cn2c3c(cc(F)cc13)CN(C(=O)N1CCCCC1)CC2 | -1.1
CCCCNc1ncc(C(=O)NCc2ccc(-n3ccnc3)cc2)c(NC2CCC(O)CC2)n1 (stereo in doubt) | -1.1
N[C@H]1CC[C@H](Nc2nc(Nc3ccc(C(=O)N4CCCCC4)cc3)c3ncn(-c4cccc(F)c4)c3n2)CC1 | -1.2
O=C1Nc2ccccc2/C1=C1/Nc2ccccc2/C1=N\OCCC(O)CO (centres unmarked) | -1.1
CC(C)Oc1cc(Nc2nc(N[C@@H](C)c3ccc(F)cn3)ncc2Cl)n[nH]1 | -1.2

###

Target: CDK9/cyclin K (Homo sapiens, UniProt P50750)
Construct: purchased Invitrogen (ThermoFisher) PV4335
Experiment: TR-FRET Lanthascreen Eu Kinase Binding assay
Conditions: logarithm of AC50; read-out: Log AC50 (converted)
Listing of recorded AC50 by entry.
ASSAY_METRIC: AC50 (nM)

COMPOUND | TARGET_OR_TEST_SYSTEM | VALUE_UNIT | REPORTED_MEASUREMENT
N[C@H]1CC[C@H](Nc2nc(Nc3ccc(C(=O)N4CCCCC4)cc3)c3ncn(-c4cccc(F)c4)c3n2)CC1 [Purfalcamine] | CDK9/cyclin K (Homo sapiens, UniProt P50750) | nM | 631
COc1ccc(-c2oc3ncnc(N)c3c2-c2ccc(NC(=O)Nc3cc(C(F)(F)F)ccc3F)cc2)cc1 [GW768505A] | CDK9/cyclin K (Homo sapiens, UniProt P50750) | nM | 631
O=C1NC(=O)C(c2cnc3ccccn23)=C1c1cn2c3c(cc(F)cc13)CN(C(=O)N1CCCCC1)CC2 [LY2090314] | CDK9/cyclin K (Homo sapiens, UniProt P50750) | nM | 631
O=C(Nc1ccnc(NC(=O)C2CC2)c1)c1c(Cl)cccc1Cl [GDC-046] | CDK9/cyclin K (Homo sapiens, UniProt P50750) | nM | 31.6

###

Target: CDK9/cyclin K (Homo sapiens, UniProt P50750)
Construct: purchased Invitrogen (ThermoFisher) PV4335
Assay: TR-FRET Lanthascreen Eu Kinase Binding assay
Settings: difference between highest and lowest activity across concentration range; in %
Counter-ions that a name gives are not always drawn.
Listing of recorded Efficacy by entry.

COMPOUND | TARGET_OR_TEST_SYSTEM | Efficacy
O=C(O)c1ccc2c(c1)nc(Nc1cccc(Cl)c1)c1ccncc12 [CX-4945 (sodium salt)] | CDK9/cyclin K (Homo sapiens, UniProt P50750) | -98.0
Cc1ncc(-c2ccnc(Nc3ccc(S(C)(=O)=O)cc3)n2)n1C(C)C | CDK9/cyclin K (Homo sapiens, UniProt P50750) | -75.7
Cc1n[nH]c2ccc(-c3cncc(OC[C@@H](N)Cc4c[nH]c5ccccc45)c3)cc12 | CDK9/cyclin K (Homo sapiens, UniProt P50750) | -88.0
O=C1Nc2ccc3ncsc3c2/C1=C/c1c[nH]cn1 | CDK9/cyclin K (Homo sapiens, UniProt P50750) | -77.3
CN[C@H]1CCN(C(=O)c2ccc(Nc3ncc(F)c(-c4cnc(C)n4C(C)C)n3)cc2)C1 | CDK9/cyclin K (Homo sapiens, UniProt P50750) | -51.7
O=C1OC(/C=C/c2ccccc2)=NC/1=C\c1cccnc1 | CDK9/cyclin K (Homo sapiens, UniProt P50750) | -71.2
Nc1nc(NCCNc2ncc(-n3ccnc3)c(-c3ccc(Cl)cc3Cl)n2)ccc1[N+](=O)[O-] | CDK9/cyclin K (Homo sapiens, UniProt P50750) | -87.0
CCOC(=O)c1c(/C(C#N)=C\N)c2ccc(Cl)c(Cl)c2n1C | CDK9/cyclin K (Homo sapiens, UniProt P50750) | -88.2
O=C(Nc1nc2ccccc2n1CCN1CCOCC1)c1cccc([N+](=O)[O-])c1 | CDK9/cyclin K (Homo sapiens, UniProt P50750) | -75.6
CC(=O)N1CCN(C(=O)Cc2ccc(Nc3ncc(F)c(Nc4ccc(C(=O)Nc5ccccc5Cl)cc4)n3)cc2)CC1 | CDK9/cyclin K (Homo sapiens, UniProt P50750) | -82.6
CCCCNc1ncc(C(=O)NCc2ccc(-n3ccnc3)cc2)c(NC2CCC(O)CC2)n1 (stereo in doubt) | CDK9/cyclin K (Homo sapiens, UniProt P50750) | -93.2
CN1CC[C@@H](c2c(O)cc(O)c3c(=O)cc(-c4ccc(C(F)(F)F)cc4Cl)oc23)[C@@H]1CO | CDK9/cyclin K (Homo sapiens, UniProt P50750) | -95.6
N#C/C(=C1\Nc2ccccc2S1)c1ccnc(NCCc2cccnc2)n1 | CDK9/cyclin K (Homo sapiens, UniProt P50750) | -79.8
CN1C/C=C/CCOc2cccc(c2)-c2ccnc(n2)Nc2cccc(c2)C1 | CDK9/cyclin K (Homo sapiens, UniProt P50750) | -6.2
CN(C)c1nc2c(Br)c(Br)c(Br)c(Br)c2[nH]1 | CDK9/cyclin K (Homo sapiens, UniProt P50750) | -84.2
COc1ccc2c(NC(=O)Nc3cccc(C(F)(F)F)n3)ccnc2c1 | CDK9/cyclin K (Homo sapiens, UniProt P50750) | -58.3
N#C/C(=C\c1ccc(O)c(O)c1)C(=O)NCCCNC(=O)/C(C#N)=C/c1ccc(O)c(O)c1 | CDK9/cyclin K (Homo sapiens, UniProt P50750) | -98.0

# credit: paper PMC6013488
